# target_entity: His-TEV-DYRK1A Kinase domain (aa127-485) (Homo sapiens)
# Construct: His-TEV-DYRK1A Kinase domain (aa127-485); His (N); TEV cleavage site (N)
# procedure_summary: Kinase ADP assay (ADP Hunter Plus)
# Type: biochemical
Simple rule here: IC50 less than 0.04 µM is MET, otherwise NOT MET.

COc1cccc(F)c1CNc1nc(C)nc2[nH]cc(-c3ccnc(N)c3)c12
MET
Cc1nc(NCc2ccccc2OC(F)(F)F)c2c(-c3ccnc(N)c3)c[nH]c2n1
NOT MET
CCOc1ccccc1CNc1nc(C)nc2[nH]cc(-c3ccnc(N)c3)c12
MET
Cc1nc(NCc2ccc(F)cc2)c2c(-c3ccnc(N)c3)c[nH]c2n1
MET

q: Report whether reported IC50 is lower than 0.04 µM (strictly) for `COc1cccc(C(F)(F)F)c1CNc1nc(C)nc2[nH]cc(-c3ccncc3)c12`
a: NOT MET

q: // query: `Cc1nc(NCc2cc(C)on2)c2c(-c3ccncc3)c[nH]c2n1`
a: NOT MET

q: Similarly, `Cc1nc(C2=Cc3ccccc3CC2)c2c(-c3ccnc(N)c3)c[nH]c2n1` ?
a: MET

q: What do we get for `Cc1nc(-c2cc3ccccc3o2)c2c(-c3ccnc(N)c3)c[nH]c2n1` ?
a: MET

q: Also `C=C(C)c1nc(NCc2c(F)cccc2F)c2c(-c3ccnc(N)c3)c[nH]c2n1` , if possible.
a: NOT MET

# credit: patent US20180273538A1
